Task for the reader: assign each of the following binders its reported log10(kon).
TGT: Recombinant human his-tagged IGF 1R extracellular domain protein (human) (UniProt P08069)
ASSAY OVERVIEW: SPR, captured IgG, IGF-1R ECD-his analyte, dissociation pH 6
// units: M⁻¹ s⁻¹ (pre-log); metric: kon; scale: log10

Recorded log10(kon), per entry:
| BINDER | log10(kon) |
| --- | --- |
| VRDN-02548 (antibody, V domains shown) VH: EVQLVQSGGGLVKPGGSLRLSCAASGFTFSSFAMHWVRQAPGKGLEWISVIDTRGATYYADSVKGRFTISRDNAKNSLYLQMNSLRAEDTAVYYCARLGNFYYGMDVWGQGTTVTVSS VL: EIVLTQSPGTLSVSPGERATLSCRASQSIGSSLHWYQQKPGQAPRLLIKYASQSLSGIPDRFSGSGSGTDFTLTISRLEPEDFAVYYCHQSHRLPHTFGQGTKVEIK | 4.60 |
| VRDN-02539 (antibody, V domains shown) VH: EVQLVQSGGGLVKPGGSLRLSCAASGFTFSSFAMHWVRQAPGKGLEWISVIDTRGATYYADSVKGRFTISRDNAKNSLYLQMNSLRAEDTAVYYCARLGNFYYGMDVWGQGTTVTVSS VL: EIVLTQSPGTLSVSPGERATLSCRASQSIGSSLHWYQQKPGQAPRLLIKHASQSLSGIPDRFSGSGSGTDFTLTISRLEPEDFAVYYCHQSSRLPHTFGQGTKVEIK | 4.43 |
| VRDN-02552 (antibody, V domains shown) VH: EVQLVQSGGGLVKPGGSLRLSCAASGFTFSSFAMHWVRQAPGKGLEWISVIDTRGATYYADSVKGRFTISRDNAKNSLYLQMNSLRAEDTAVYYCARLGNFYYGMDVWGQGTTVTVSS VL: EIVLTQSPGTLSVSPGERATLSCRASQSIGSSLHWYQQKPGQAPRLLIKYASQSLSGIPDRFSGSGSGTDFTLTISRLEPEDFAVYYCHQSSRLPHHFGQGTKVEIK | 4.62 |
| VRDN-02531 (antibody, V domains shown) VH: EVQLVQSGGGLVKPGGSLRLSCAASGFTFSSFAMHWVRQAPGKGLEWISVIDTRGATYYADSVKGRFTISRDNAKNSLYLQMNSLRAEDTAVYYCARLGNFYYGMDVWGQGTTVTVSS VL: EIVLTQSPGTLSVSPGERATLSCRASHSIGSSLHWYQQKPGQAPRLLIKYASQSLSGIPDRFSGSGSGTDFTLTISRLEPEDFAVYYCHQSSRLPHTFGQGTKVEIK | 4.50 |
| VRDN-02550 (antibody, V domains shown) VH: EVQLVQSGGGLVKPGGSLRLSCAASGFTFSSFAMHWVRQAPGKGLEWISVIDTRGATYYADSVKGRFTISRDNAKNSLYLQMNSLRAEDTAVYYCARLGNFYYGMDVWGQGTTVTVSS VL: EIVLTQSPGTLSVSPGERATLSCRASQSIGSSLHWYQQKPGQAPRLLIKYASQSLSGIPDRFSGSGSGTDFTLTISRLEPEDFAVYYCHQSSRHPHTFGQGTKVEIK | 4.57 |

Go through the list and state log10(kon) for each entry.
1. VRDN-02528 (antibody, V domains shown) VH: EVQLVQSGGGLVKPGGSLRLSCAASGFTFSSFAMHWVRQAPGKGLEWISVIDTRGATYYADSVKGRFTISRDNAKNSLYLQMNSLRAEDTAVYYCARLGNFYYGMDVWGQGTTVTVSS VL: EIVLTQSPGTLSVSPGERATLSCHASQSIGSSLHWYQQKPGQAPRLLIKYASQSLSGIPDRFSGSGSGTDFTLTISRLEPEDFAVYYCHQSSRLPHTFGQGTKVEIK
2. VRDN-02513 (antibody, V domains shown) VH: EVQLVQSGGGLVKPGGSLRLSCAASGFTFSSFAMHWVRQAPGKGLEWISVIDTRHATYYADSVKGRFTISRDNAKNSLYLQMNSLRAEDTAVYYCARLGNFYYGMDVWGQGTTVTVSS VL: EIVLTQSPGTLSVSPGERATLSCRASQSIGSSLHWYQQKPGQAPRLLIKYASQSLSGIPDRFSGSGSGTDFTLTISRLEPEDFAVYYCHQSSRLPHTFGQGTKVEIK

A.
1. 4.61
2. 4.49

Go through the list and state log10(kon) for each entry.
1. VRDN-02510 (antibody, V domains shown) VH: EVQLVQSGGGLVKPGGSLRLSCAASGFTFSSFAMHWVRQAPGKGLEWISVIHTRGATYYADSVKGRFTISRDNAKNSLYLQMNSLRAEDTAVYYCARLGNFYYGMDVWGQGTTVTVSS VL: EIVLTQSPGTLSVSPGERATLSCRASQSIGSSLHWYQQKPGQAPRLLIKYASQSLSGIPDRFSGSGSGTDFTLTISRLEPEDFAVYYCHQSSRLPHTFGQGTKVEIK
2. VRDN-02560 (antibody, V domains shown) VH: EVQLVQSGGGLVKPGGSLRLSCAASGFTFSSFHMHWVRQAPGKGLEWISVIDTRGATYYADSVKGRFTISRDNAKNSLYLQMNSLRAEDTAVYYCARLGNFYYHMDVWGQGTTVTVSS VL: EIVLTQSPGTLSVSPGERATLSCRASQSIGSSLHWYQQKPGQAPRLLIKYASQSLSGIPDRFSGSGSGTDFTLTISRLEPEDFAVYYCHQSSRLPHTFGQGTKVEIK
3. VRDN-02530 (antibody, V domains shown) VH: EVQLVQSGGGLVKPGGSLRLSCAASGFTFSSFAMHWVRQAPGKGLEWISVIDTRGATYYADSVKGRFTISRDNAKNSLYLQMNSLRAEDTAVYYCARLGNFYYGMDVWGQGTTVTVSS VL: EIVLTQSPGTLSVSPGERATLSCRAHQSIGSSLHWYQQKPGQAPRLLIKYASQSLSGIPDRFSGSGSGTDFTLTISRLEPEDFAVYYCHQSSRLPHTFGQGTKVEIK

A.
1. 4.48
2. 5.73
3. 4.54

These data points were gathered from patent US20240343814A1.
